Data origin, for the record: the RNAGym collection of RNA variant scans (doi:10.7554/elife.90254)

B1: LINE1-full (parent)
chain: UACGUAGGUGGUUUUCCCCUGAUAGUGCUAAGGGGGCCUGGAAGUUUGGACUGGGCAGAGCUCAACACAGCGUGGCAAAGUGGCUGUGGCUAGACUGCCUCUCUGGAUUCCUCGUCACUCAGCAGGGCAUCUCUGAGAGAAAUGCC

# Variants of: B1
# assay overview: self-cleavage, relative activity (ratio to wild type); higher = more cleavage; in vitro, sequencing; the parent is a self-cleaving ribozyme
Binary classification by self-cleavage, with 0.9 as an inclusive lower bound for true (1); all other cases are false (0).

variant id: A79G G144A
assigned label: true (1)

variant id: G8U C37G
assigned label: true (1)

variant id: U26A C99U
assigned label: false (0)

Tell me whether self-cleavage is at least 0.9 here: U9C U23C
true (1)

Tell me whether self-cleavage is at least 0.9 here: U12A A138G
true (1)

Tell me whether self-cleavage is at least 0.9 here: U85C G127C
false (0)
